Target: p300 (Homo sapiens)
Construct: host or cells: A549 P300 HiBit cells
Sequence (Q09472 whole entry): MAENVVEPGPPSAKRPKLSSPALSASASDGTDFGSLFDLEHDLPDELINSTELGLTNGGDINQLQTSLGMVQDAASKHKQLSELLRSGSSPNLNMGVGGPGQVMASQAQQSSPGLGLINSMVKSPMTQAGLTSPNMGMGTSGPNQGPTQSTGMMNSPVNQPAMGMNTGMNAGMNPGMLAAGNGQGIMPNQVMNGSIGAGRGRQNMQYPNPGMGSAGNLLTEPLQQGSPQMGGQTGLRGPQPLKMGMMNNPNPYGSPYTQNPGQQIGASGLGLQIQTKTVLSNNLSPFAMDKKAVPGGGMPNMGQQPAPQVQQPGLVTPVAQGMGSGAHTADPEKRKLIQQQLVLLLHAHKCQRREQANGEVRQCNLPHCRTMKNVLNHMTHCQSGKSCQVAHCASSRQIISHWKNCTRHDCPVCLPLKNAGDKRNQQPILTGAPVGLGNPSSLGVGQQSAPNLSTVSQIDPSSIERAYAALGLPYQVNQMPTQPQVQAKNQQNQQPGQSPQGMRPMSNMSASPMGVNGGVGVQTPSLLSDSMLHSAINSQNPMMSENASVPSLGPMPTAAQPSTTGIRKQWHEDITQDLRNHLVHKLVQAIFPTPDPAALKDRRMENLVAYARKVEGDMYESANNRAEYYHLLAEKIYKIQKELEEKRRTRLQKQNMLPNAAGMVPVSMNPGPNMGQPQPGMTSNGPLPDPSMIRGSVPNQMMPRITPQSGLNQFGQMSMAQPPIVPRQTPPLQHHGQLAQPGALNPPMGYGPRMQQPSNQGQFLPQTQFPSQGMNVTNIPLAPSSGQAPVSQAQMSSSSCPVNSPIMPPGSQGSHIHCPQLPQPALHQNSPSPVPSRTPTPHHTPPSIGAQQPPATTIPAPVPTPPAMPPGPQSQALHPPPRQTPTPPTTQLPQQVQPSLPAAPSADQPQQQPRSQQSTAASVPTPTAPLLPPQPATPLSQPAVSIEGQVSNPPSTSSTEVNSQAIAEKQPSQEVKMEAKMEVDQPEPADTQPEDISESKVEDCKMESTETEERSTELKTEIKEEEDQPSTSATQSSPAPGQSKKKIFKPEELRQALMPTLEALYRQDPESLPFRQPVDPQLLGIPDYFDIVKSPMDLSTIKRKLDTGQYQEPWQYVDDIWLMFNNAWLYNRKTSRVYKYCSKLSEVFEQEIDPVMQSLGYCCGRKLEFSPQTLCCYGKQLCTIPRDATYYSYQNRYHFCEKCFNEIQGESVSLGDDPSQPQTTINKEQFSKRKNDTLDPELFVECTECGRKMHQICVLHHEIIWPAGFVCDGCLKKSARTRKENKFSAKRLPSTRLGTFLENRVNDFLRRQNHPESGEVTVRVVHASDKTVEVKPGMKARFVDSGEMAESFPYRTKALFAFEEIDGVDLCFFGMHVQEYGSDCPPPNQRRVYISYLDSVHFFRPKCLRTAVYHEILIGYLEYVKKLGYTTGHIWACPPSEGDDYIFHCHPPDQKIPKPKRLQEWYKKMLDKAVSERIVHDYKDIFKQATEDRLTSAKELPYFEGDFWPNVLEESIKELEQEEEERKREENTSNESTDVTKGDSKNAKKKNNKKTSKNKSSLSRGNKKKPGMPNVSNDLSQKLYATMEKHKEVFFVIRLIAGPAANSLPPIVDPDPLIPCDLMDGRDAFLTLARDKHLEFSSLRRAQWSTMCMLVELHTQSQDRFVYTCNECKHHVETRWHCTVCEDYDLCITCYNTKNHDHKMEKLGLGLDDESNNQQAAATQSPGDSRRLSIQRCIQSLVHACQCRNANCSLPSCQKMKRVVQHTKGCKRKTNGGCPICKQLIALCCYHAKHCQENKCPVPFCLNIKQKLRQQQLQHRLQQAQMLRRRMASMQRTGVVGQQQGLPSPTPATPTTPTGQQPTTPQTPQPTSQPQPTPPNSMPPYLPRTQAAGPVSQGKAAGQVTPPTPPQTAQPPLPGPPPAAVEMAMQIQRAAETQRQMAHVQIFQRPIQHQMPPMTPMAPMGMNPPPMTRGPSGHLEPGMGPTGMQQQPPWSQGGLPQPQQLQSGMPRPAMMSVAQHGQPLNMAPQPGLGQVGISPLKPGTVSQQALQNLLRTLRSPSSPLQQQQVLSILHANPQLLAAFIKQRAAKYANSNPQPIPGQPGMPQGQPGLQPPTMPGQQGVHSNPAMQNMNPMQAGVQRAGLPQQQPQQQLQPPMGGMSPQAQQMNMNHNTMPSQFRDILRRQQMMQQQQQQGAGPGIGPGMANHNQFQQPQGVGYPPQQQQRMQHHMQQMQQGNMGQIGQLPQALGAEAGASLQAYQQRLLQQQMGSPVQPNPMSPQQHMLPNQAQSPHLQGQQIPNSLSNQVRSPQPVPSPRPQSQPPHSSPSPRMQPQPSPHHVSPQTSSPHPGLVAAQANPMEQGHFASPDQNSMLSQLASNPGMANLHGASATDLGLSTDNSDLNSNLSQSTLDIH
Experiment: P300 degradation, HiBit technology in A549 P300 HiBit cells (2 h)
Type: cell-based
Conditions: A549 P300 HiBit cells, 2 hrs post treatment
endpoint.label: DC50

[[record]]
molecule = "Cc1cc(-c2cc3c(cn2)N(c2cc(C(C)C)c4c(c2)n(C)c(=O)n4C)CCC3)cnc1C(=O)NCC#Cc1ccn2ncc(C3CCC(=O)NC3=O)c2c1 (stereo not drawn)"
target = "p300 (Homo sapiens)"
value_measured = "< 1 nM"

[[record]]
molecule = "CNC(=O)c1c[nH]c2ccc(-c3cccc4cc(-c5ccc(C(=O)NCC#Cc6ccc7occ(C8CCC(=O)NC8=O)c7c6)nc5)ncc34)cc12 (stereo not drawn)"
target = "p300 (Homo sapiens)"
value_measured = "1 to 9.9 nM"

[[record]]
molecule = "CC(C)c1cc(N2CCCc3cc(-c4ccc(C(=O)NCc5ccc(-c6ccn(C7CCC(=O)NC7=O)n6)cc5)nc4)c(C(F)F)cc32)cc2c1n(C)c(=O)n2C (stereo not drawn)"
target = "p300 (Homo sapiens)"
value_measured = "> 1000 nM"

[[record]]
molecule = "Cc1cc(-c2ncc3c(n2)CCCN3c2nc(N3CCOCC3)cc3c2cc(C)c(=O)n3C)cnc1C(=O)NCC#Cc1ccc2occ(C3CCC(=O)NC3=O)c2c1 (stereo not drawn)"
target = "p300 (Homo sapiens)"
value_measured = "1 to 9.9 nM"

[[record]]
molecule = "Cc1cc(-c2ncc(N(C)c3cc(C4CCOCC4)cc4c3cc(C)c(=O)n4C)cn2)cnc1C(=O)NCC#Cc1cc2c(C3CCC(=O)NC3=O)cccc2o1 (stereo not drawn)"
target = "p300 (Homo sapiens)"
value_measured = "1 to 9.9 nM"


Then there is this molecule:
Recorded DC50 (molecule Cc1cc(-c2cc3c(cc2F)N(c2ccc4c(c2)n(C)c(=O)n4C)CCO3)cnc1C(=O)NCC#Cc1ccc2occ(C3CCC(=O)NC3=O)c2c1 (stereo not drawn) ): 10 to 99 nM
